test: Phase I clinical trial, food effect part: pharmacokinetics of C21 fed vs fasted
Assay type: in vivo, human
run-conditions: both sexes, human, plasma, po, 75 mg, single oral dose 75 mg, Fed (high-fat breakfast), N = 10, plasma; read-out: Cmax, Geometric Mean
parameter-measured: Cmax (µg/mL)
Kindly provide the numeric value in µg/mL only, without the unit symbol.

# input compound: CCCCOC(=O)NS(=O)(=O)c1sc(CC(C)C)cc1-c1ccc(Cn2ccnc2)cc1 ; wanted: its Cmax
0.263

====

test: Phase I clinical trial, food effect part: pharmacokinetics of C21 fed vs fasted
Type: in vivo, human
run-conditions: both sexes, human, plasma, oral, 75 mg, Fed (N = 10), mixed ANOVA model; read-out: AUC(0-24), Geometric Mean (95% CI), mixed effects model
Method: In addition, the effect of food on the pharmacokinetics (PK) of C21 was investigated in an open label manner in 10 male and female subjects at a single oral dose of 75 mg. […] Plasma concentrations below the lower limit of quantification (LLOQ) were presented as below the lower limit of quantification (BLQ). […] All BLQ values pre-dose and in the absorption phase prior to the first quantifiable concentration were substituted by zeros. […]
parameter-measured: AUC(0-t) (ng·h/mL)
Kindly provide the numeric value in ng·h/mL only, without the unit symbol.

# input compound: CCCCOC(=O)NS(=O)(=O)c1sc(CC(C)C)cc1-c1ccc(Cn2ccnc2)cc1 ; wanted: its AUC(0-t)
768

====

test: Phase I clinical trial, food effect part: pharmacokinetics of C21 fed vs fasted
Assay type: in vivo, human
run-conditions: both sexes, human, plasma, po, 75 mg, single oral dose 75 mg, Fasted, N = 9; read-out: AUC(0-6), Arithmetic Mean
parameter-measured: AUC(0-t) (ng·h/mL)
Kindly provide the numeric value in ng·h/mL only, without the unit symbol.

# input compound: CCCCOC(=O)NS(=O)(=O)c1sc(CC(C)C)cc1-c1ccc(Cn2ccnc2)cc1 [C21] ; wanted: its AUC(0-t)
1850

====

test: Phase I clinical trial, food effect part: pharmacokinetics of C21 fed vs fasted
Assay type: in vivo, human
run-conditions: both sexes, human, plasma, po, 75 mg, single oral dose 75 mg, Fasted, N = 9; read-out: AUC(0-12), Geometric Mean
Experimental: In addition, the effect of food on the pharmacokinetics (PK) of C21 was investigated in an open label manner in 10 male and female subjects at a single oral dose of 75 mg. […] Plasma concentrations below the lower limit of quantification (LLOQ) were presented as below the lower limit of quantification (BLQ). […] All BLQ values pre-dose and in the absorption phase prior to the first quantifiable concentration were substituted by zeros. […]
parameter-measured: AUC(0-t) (ng·h/mL)
Kindly provide the numeric value in ng·h/mL only, without the unit symbol.

# input molecule: CCCCOC(=O)NS(=O)(=O)c1sc(CC(C)C)cc1-c1ccc(Cn2ccnc2)cc1 ; wanted: its AUC(0-t)
1770

====

test: Phase I clinical trial, food effect part: pharmacokinetics of C21 fed vs fasted
Format: in vivo, human
run-conditions: both sexes, human, plasma, po, 75 mg, single oral dose 75 mg, Fed, N = 10; read-out: AUC(0-6), Arithmetic Mean
parameter-measured: AUC(0-t)
The reply must contain the numeric value and, after it, the unit.

# input compound: CCCCOC(=O)NS(=O)(=O)c1sc(CC(C)C)cc1-c1ccc(Cn2ccnc2)cc1 ; wanted: its AUC(0-t)
0.747 µg·h/mL

====

test: Phase I clinical trial, food effect part: pharmacokinetics of C21 fed vs fasted
Format: in vivo, human
run-conditions: both sexes, human, plasma, po, 75 mg, single oral dose 75 mg, Fed, N = 10; read-out: AUC(0-12), Arithmetic Mean
Procedure: In addition, the effect of food on the pharmacokinetics (PK) of C21 was investigated in an open label manner in 10 male and female subjects at a single oral dose of 75 mg. […] Plasma concentrations below the lower limit of quantification (LLOQ) were presented as below the lower limit of quantification (BLQ). […] All BLQ values pre-dose and in the absorption phase prior to the first quantifiable concentration were substituted by zeros. […]
parameter-measured: AUC(0-t) (ng·h/mL)
Kindly provide the numeric value in ng·h/mL only, without the unit symbol.

# input compound: CCCCOC(=O)NS(=O)(=O)c1sc(CC(C)C)cc1-c1ccc(Cn2ccnc2)cc1 [C21] ; wanted: its AUC(0-t)
790

====

test: Phase I clinical trial, food effect part: pharmacokinetics of C21 fed vs fasted
Assay type: in vivo, human
run-conditions: both sexes, human, plasma, po, 75 mg, single oral dose 75 mg, Fed, N = 10; read-out: Vz/F, Geometric Mean
parameter-measured: Vd/F (L)
Kindly provide the numeric value in L only, without the unit symbol.

# input compound: CCCCOC(=O)NS(=O)(=O)c1sc(CC(C)C)cc1-c1ccc(Cn2ccnc2)cc1 ; wanted: its Vd/F
118
